Recorded values, source patent US20240301052A1.

# ASSAY TARGET: T1, Rhesus SLC34A2 (Rhesus, UniProt F7HDA3 1-690)
# T1 construct: whole, on cells
# T1 sequence: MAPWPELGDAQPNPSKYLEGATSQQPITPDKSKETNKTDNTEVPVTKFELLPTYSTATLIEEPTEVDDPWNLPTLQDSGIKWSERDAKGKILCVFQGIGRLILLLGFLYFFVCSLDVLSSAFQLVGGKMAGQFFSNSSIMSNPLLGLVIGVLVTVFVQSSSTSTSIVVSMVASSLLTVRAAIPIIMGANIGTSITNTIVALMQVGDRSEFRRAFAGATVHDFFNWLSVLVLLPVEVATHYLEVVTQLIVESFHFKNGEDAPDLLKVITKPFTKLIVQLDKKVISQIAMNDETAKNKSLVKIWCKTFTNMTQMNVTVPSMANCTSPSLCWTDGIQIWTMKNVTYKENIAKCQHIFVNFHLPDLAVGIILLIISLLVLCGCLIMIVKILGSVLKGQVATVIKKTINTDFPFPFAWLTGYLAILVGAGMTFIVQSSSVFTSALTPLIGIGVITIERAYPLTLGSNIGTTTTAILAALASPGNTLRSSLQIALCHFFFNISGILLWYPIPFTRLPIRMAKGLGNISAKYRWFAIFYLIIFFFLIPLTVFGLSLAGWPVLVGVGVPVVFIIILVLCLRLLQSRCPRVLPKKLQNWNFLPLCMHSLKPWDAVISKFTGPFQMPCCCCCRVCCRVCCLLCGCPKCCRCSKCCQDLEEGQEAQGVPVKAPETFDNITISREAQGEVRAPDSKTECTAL
# ASSAY PROCEDURE: FACS, HEK293/Rhesus SLC34A2 cells
ATTRIBUTE MEASURED: Top (MFI)

{"BINDER": "xi62G10E4G8 hIgG1 (antibody, V domains shown, chimeric, hIgG1) VH: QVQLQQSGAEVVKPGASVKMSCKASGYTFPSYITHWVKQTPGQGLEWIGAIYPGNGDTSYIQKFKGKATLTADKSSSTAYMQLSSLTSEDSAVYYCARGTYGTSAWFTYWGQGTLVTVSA VL: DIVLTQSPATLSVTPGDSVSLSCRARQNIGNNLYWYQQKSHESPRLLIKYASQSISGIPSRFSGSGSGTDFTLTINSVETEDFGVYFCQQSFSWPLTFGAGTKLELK", "UNIT DESCRIPTOR": "MFI", "OBSERVED": 12000}
{"BINDER": "xi18G1H4 hIgG1 (antibody, V domains shown, chimeric, hIgG1) VH: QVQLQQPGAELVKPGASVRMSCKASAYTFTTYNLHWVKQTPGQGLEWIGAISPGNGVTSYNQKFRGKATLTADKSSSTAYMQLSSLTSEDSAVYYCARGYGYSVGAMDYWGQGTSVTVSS VL: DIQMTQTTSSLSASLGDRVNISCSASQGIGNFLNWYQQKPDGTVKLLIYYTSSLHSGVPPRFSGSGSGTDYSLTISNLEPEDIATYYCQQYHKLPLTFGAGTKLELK", "UNIT DESCRIPTOR": "MFI", "OBSERVED": 14300}
